Target: T1, monkey CEA expressed on CHO cell surface (cynomolgus monkey)
T1 construct: also called cynoCEA-CHO; monkey CEA proteins on the cell surface
T1 chain: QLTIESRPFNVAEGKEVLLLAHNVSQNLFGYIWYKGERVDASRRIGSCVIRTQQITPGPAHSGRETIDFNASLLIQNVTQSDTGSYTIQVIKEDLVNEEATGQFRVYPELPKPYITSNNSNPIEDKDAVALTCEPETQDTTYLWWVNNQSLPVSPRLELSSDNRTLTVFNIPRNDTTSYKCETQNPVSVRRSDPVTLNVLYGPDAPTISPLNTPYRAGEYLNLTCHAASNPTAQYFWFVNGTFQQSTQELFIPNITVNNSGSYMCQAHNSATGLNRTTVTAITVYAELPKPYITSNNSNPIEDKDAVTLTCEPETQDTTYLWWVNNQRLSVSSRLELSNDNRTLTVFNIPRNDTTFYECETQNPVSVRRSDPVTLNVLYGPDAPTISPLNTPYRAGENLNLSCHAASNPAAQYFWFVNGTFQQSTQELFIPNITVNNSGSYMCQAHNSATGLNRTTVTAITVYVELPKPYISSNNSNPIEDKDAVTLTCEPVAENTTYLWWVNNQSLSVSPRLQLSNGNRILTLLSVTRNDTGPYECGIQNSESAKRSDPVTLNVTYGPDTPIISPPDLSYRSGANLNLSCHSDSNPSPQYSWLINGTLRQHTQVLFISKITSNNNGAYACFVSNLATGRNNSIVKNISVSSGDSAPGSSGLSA
Assay: FACS, cynoCEA-CHO cells
What EC50 was measured for each of the following?
Give bare numbers, in nM.

Example cases with answers are listed next.
Query: Dear colleague, I am looking for the recorded EC50 of the following binder: Hu63-8 (antibody, human IgG1, kappa, V domains shown) VH: EVQLVQSGAEVKKPGASVKVSCKASGYTFTDFYMNWVRQAPGQGLEWIGDIFPKNGNTDYNRKFKDRATLTVDKSTSTVYMEFSSLRSEDTAVYYCARSGYGNYVFDYWGQGTLVTVSS VL: DVQMTQSPSSLSASVGDRVTITCRTSQDINIYLNWYQQKPGKAPKLLIYYRSGLLSGVPSRFSGSGSGTDYTLTISSLQPEDFATYYCQQGNTLPPTFGGGTKVEIKR
Response: 2.43

Query: // same read-out, input: Hu67-14 (antibody, human IgG1, kappa, V domains shown, Humanized IgG1/kappa; h67VH3 + h67VL4) VH: EVQLVQSGAEVKKPGESLKISCKGSGYSFTDYHMNWVKQMPGKGLEWMGDINPDIGGTSYNQNFKGKVTISVDKSISTAYLQWSSLKASDTAMYYCARWDFDSFANWGQGTLVTVSS VL: DIQMTQSPSSLSASVGDRVTITCRASESVSIIGTNLIHWYQQKPGKAPKLLIYHASNLETGVPSRFSGSGSGTDFTLTISSLQPEDFATYYCLQSRKIPYTFGGGTKVEIKR
Response: 2.89

Query: // same read-out, input: Hu63-5 (antibody, human IgG1, kappa, V domains shown) VH: EVQLVQSGAEVKKPGASVKVSCKASGYTFTDFYMNWVRQAPGQGLEWMGDIFPKNGNTDYNRKFKDRVTLTVDKSTSTVYMELSSLRSEDTAVYYCARSGYGNYVFDYWGQGTLVTVSS VL: DVQMTQSPSSLSASVGDRVTITCRTSQDINIYLNWYQQKPGKAPKLLIYYRSGLLSGVPSRFSGSGSGTDYTLTISSLQPEDFATYYCQQGNTLPPTFGGGTKVEIKR
Response: 2.14

Please find the next binder below.
Query: Dear colleague, I am looking for the recorded EC50 of the following binder: Hu67-1 (antibody, human IgG1, kappa, V domains shown) VH: EVQLVQSGAEVKKPGASVKVSCKASGYTFTDYHMNWVRQAPGQRLEWMGDINPDIGGTSYNQNFKGRVTITRDTSASTAYMELSSLRSEDTAVYYCARWDFDSFANWGQGTLVTVSS VL: DIVMTQSPDSLAVSLGERATINCRASESVSIIGTNLIHWYQQKPGQPPKLLIYHASNLETGVPDRFSGSGSGTDFTLTISSLQAEDVAVYYCLQSRKIPYTFGGGTKVEIKR
Response: 4.57

This collection of values is drawn from patent US20230055408A1.
